- Test system: BCPAP cells
- assay_text: In vitro cytotoxicity, MTT assay
- Assay type: cell-based
- settings: Homo sapiens, 48 h, Da/Dox mass ratio 1:1, value given for Dox, n = 3
Kindly supply the reported IC50 values for the records listed here.
# value in nM; strip the unit string

Record request: IC50 value, item CC(C)(C)c1nc(-c2cccc(NS(=O)(=O)c3c(F)cccc3F)c2F)c(-c2ccnc(N)n2)s1
2080

Record request: IC50 value, item COc1cccc2c1C(=O)c1c(O)c3c(c(O)c1C2=O)C[C@@](O)(C(=O)CO)C[C@@H]3O[C@H]1C[C@H](N)[C@H](O)[C@H](C)O1
1720

The reported numbers originate from paper PMC10157742.
